Test: Quantitative High-Throughput drug screen in 47 multiple myeloma cell lines against the NCATS MIPE library collection: VP6_DJ cell viability assay (AID 1919867); further: nearly all actives have a fitted effect of over 40% in size
Conditions: ATP luminescence, 48 h; series mostly up to 45.8 µM
Results filed as inconclusive are left out. The source made the active and inactive calls. The call rests on the fitted dose curve; in most records, active means well fitted cell-killing curve with a large enough effect; inconclusive means small, poorly fitted or top-dose-only effect, or effect the other way; inactive means no such curve, though single readings can be large or run the other way.
Give your call using only these classes: active, inactive

Solved cases below.
INSERT INTO results (molecule, class) VALUES
  ('Cc1cc(Cl)ccc1OCCCC(=O)NO', 'active'),
  ('Cc1nc2n(c(=O)c1CCN1CCC(c3noc4cc(F)ccc34)CC1)CCCC2', 'active'),
  ('Cc1cc2cc3c(C)cc(=O)oc3c(C)c2o1', 'active');

Next, consider the following molecule.
Ask: For CC(=O)O[C@H]1C(=O)[C@@]2(C)C([C@H](OC(=O)c3ccccc3)[C@]3(O)C[C@H](OC(=O)[C@H](O)[C@@H](NC(=O)c4ccccc4)c4ccccc4)C(C)=C1C3(C)C)[C@]1(OC(C)=O)CO[C@@H]1C[C@@H]2O (some centres undefined) , which call appears in the assay record?
Reply: inactive

---

Experiment: qHTS of pediatric cancer cell lines to identify multiple opportunities for drug repurposing: Confirmatory screen for Rh18 cells (AID 1347125);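 further: cells exposed to compound for 48 h; on the % scale 0 is the no-effect control and ±100 the full control effect; nearly all actives have a fitted effect of over 55% in size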
Settings: Rh18 rhabdomyosarcoma cells, viability; series mostly up to 45.9 µM
Results filed as inconclusive are left out. The source made the active and inactive calls. Calls follow the shape of the dose curve; as a rule, active = well fitted cell-killing curve with a large enough effect; inconclusive = small, poorly fitted or top-dose-only effect, or effect the other way; inactive = flat fitted curve, though single readings scatter.
Your response should consist of one outcome taken from true (active), false (inactive)

Worked examples, 3 compounds total:
INSERT INTO measurements (compound, class) VALUES
  ('CC[C@]1(O)C[C@H]2CN(CCc3c([nH]c4ccccc34)[C@@](C(=O)OC)(c3cc4c(cc3OC)N(C=O)[C@H]3[C@@](O)(C(=O)OC)[C@H](OC(C)=O)[C@]5(CC)C=CCN6CC[C@]43[C@@H]65)C2)C1', 'false'),
  ('CCCOc1ccc2nc(NC(=O)OC)[nH]c2c1', 'false'),
  ('CCOc1cc(CC(=O)N[C@@H](CC(C)C)c2ccccc2N2CCCCC2)ccc1C(=O)O', 'false');

Next:
Ask: Hi team, can someone confirm the assay call for `CS(=O)(=O)OCCCCOS(C)(=O)=O` ?
Reply: false

---

Target: ATP-dependent 6-phosphofructokinase (Trypanosoma brucei brucei)
Assay: qHTS Validation Assay to Find Inhibitors of T. brucei phosphofructokinase (AID 485368); further: potency means the concentration at half of the fitted maximal effect
Settings: T. brucei PFK enzyme assay, qHTS 7-point titration; series mostly up to 57.5 µM
Results filed as inconclusive are left out. Active and inactive are the calls of the source. Calls come from the whole dose curve; as a rule, active = well fitted inhibition curve with a large enough effect; inconclusive = small, poorly fitted or top-dose-only effect, or effect the other way; inactive = flat fitted curve, though single readings scatter.
readout: Potency

INSERT INTO measurements (compound, targetofassay, readout, valuemeasured) VALUES
  ('NC(=NCc1ccccc1)NC(=O)c1nc(Cl)c(N)nc1N', 'ATP-dependent 6-phosphofructokinase (Trypanosoma brucei brucei)', 'Potency', 'inactive'),
  ('CC(=O)O[C@H]1C(=O)[C@@]2(C)C([C@H](OC(=O)c3ccccc3)[C@]3(O)C[C@H](OC(=O)[C@H](O)[C@@H](NC(=O)c4ccccc4)c4ccccc4)C(C)=C1C3(C)C)[C@]1(OC(C)=O)CO[C@@H]1C[C@@H]2O (stereo partly specified)', 'ATP-dependent 6-phosphofructokinase (Trypanosoma brucei brucei)', 'Potency', 'inactive'),
  ('Nc1nc(N)c(N=O)c(OCC2CCCCC2)n1', 'ATP-dependent 6-phosphofructokinase (Trypanosoma brucei brucei)', 'Potency', 'inactive'),
  ('O=c1c(O)c(-c2cc(O)c(O)c(O)c2)oc2cc(O)cc(O)c12', 'ATP-dependent 6-phosphofructokinase (Trypanosoma brucei brucei)', 'Potency', '3.01 µM (active)'),
  ('Oc1ccc2ccccc2c1SSc1c(O)ccc2ccccc12', 'ATP-dependent 6-phosphofructokinase (Trypanosoma brucei brucei)', 'Potency', 'inactive'),
  ('CCOC(=O)C(C)Oc1cccc2c(=O)n(CC(=O)Nc3ccc4c(c3)OCCO4)ccc12 (stereo unspecified)', 'ATP-dependent 6-phosphofructokinase (Trypanosoma brucei brucei)', 'Potency', 'inactive');

Lab note: measured Potency of `NCCCCNCCCN` was inactive

Per the record, OC(CN1CCN(c2cccc(Cl)c2)CC1)C(c1ccccc1)c1ccccc1 (stereo unspecified) has Potency of inactive

For `CC(=O)N1CCN(c2ccc(OC[C@H]3CO[C@](Cn4ccnc4)(c4ccc(Cl)cc4Cl)O3)cc2)CC1` the compound record lists Potency as inactive

compound O=C(c1ccccc1)c1ccc2n1CCC2C(=O)O (stereo unspecified) , Potency observed: inactive

Memo: `COc1ccccc1N1CCN(CCN(C(=O)C2CCCCC2)c2ccccn2)CC1` , reported Potency: inactive

---

Test system: CRL-7250
Test: Cytotoxic Profiling of Annotated Libraries Using Quantitative High-Throughput Screening (AID 1296008); further: nearly all actives have a fitted effect of over 60% in size
Details: Five cell lines viability, CellTiter-Glo ATP luminescence, 48-72 h
Inconclusive results are not listed. Calls of active or inactive are those of the source. Calls follow the shape of the dose curve; as a rule, active = well fitted inhibition curve with a large enough effect; inconclusive = small, poorly fitted or top-dose-only effect; inactive = flat fitted curve, though single readings scatter.
Assign a class; possible classes are active, inactive

INSERT INTO results (molecule, class) VALUES
  ('CN(C)CCc1c[nH]c2ccc(Cn3cncn3)cc12', 'active'),
  ('CCCCCCCCCCCCCCCCCCCCCCO', 'inactive');

Switching to the query record.
Ask: Assay outcome for `CCC[C@@H]1C[C@@H](C(=O)N[C@@H]([C@H]2O[C@H](SC)[C@H](O)[C@@H](O)[C@H]2O)[C@@H](C)O)N(C)C1` : what was it?
Reply: inactive

---

Assay: qHTS for identification of novel therapeutic agents for treatment of microphthalmiaassociated transcription factor (MiT) renal cell carcinoma (RCC) (AID 1963991);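 further: curves scaled with 100% = DMSO viability and 0% = empty wells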
Conditions: TFE3-RCC viability, CellTiter-Glo, 48 h; measured here: UOK124 Z-AUC; stronger effect = lower value
Records with an inconclusive call do not appear.
readout: z-score
Please give only the number in your answer, with no unit.

INSERT INTO measurements (molecule, valuemeasured) VALUES
  ('CCOc1cc(CC(=O)N[C@@H](CC(C)C)c2ccccc2N2CCCCC2)ccc1C(=O)O', 0.688);

Given item CCC1=C(C)CN(C(=O)NCCc2ccc(S(=O)(=O)NC(=O)NC3CCC(C)CC3)cc2)C1=O (stereo not drawn) , the value recorded as its z-score is 0.513

Recorded z-score (molecule `COc1cc(OC)c(C(=O)CCCN2CCCC2)c(OC)c1` ): 0.362

Input `O=c1c(O)c(-c2ccc(O)cc2O)oc2cc(O)cc(O)c12` . Output z-score: 0.591

# z-score (molecule: O=C(OC1C[C@H]2CC[C@@H](C1)[N+]21CCCC1)C(O)(c1ccccc1)c1ccccc1 (stereo partly drawn) ) is 0.765

Reported z-score of O=C(CS(=O)Cc1ccco1)NCC=CCOc1cc(CN2CCCCC2)ccn1 (stereo not drawn) : 0.332

# z-score of `Cc1cc2c(s1)Nc1ccccc1N=C2N1CCN(C)CC1` = 0.714

---

Test: High-throughput drug toxicity screening in the BPDCN cell line Gen2.2 (AID 1224824);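 further: cells exposed to compounds for 48 h before reading; 100% = DMSO and 0% = bortezomib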
Conditions: Gen2.2 BPDCN cells; at 45.8 µM (top of the series) unless noted
readout: cell viability, % of control (lower = more cytotoxic)

INSERT INTO measurements (compound, valuemeasured) VALUES
  ('O=c1c(O)c(-c2cc(O)c(O)c(O)c2)oc2cc(O)cc(O)c12', '54.4%'),
  ('CCC[C@@H]1C[C@@H](C(=O)N[C@@H]([C@H]2O[C@H](SC)[C@H](O)[C@@H](O)[C@H]2O)[C@@H](C)O)N(C)C1', '191%'),
  ('c1cnc2cc3c(cc2n1)C1CNCC3C1', '95.8%'),
  ('COc1c2occc2cc2ccc(=O)oc12', '109%'),
  ('Cc1nc2n(c(=O)c1CCN1CCC(c3noc4cc(F)ccc34)CC1)CCCC2', '80.6%');

Form field cell viability, % of control (lower = more cytotoxic), entry C[C@@H](N)C1CCC(C(=O)Nc2ccncc2)CC1 (stereo partly specified) : 84.4%

---

System: WaGa
Test: qHTS assay to identify novel small-molecules to repurpose for Merkel cell carcinoma treatment (AID 1296009); further: nearly all actives have a fitted effect of over 60% in size
Details: MCC and control cell lines, CellTiter-Glo viability, 72 h; series mostly up to 46 µM
Results filed as inconclusive are left out. The source made the active and inactive calls. Calls come from the whole dose curve; as a rule, active = well fitted inhibition curve with a large enough effect; inconclusive = small, poorly fitted or top-dose-only effect; inactive = flat fitted curve, though single readings scatter.
Bench note: report the call from True = active, False = inactive

INSERT INTO results (compound, class) VALUES
  ('O=C(CS(=O)Cc1ccco1)NCC=CCOc1cc(CN2CCCCC2)ccn1 (stereo not drawn)', 'False'),
  ('O=C(NOCC1CC1)c1ccc(F)c(F)c1Nc1ccc(I)cc1Cl', 'True'),
  ('Clc1ccc2c(N3CCN(CCCN4CCN(c5ccnc6cc(Cl)ccc56)CC4)CC3)ccnc2c1', 'False'),
  ('CCCCC(CC)COC(=O)C(C#N)=C(c1ccccc1)c1ccccc1 (stereo not drawn)', 'False'),
  ('O=c1cc(N2CCOCC2)oc2c(-c3ccccc3)cccc12', 'False'),
  ('CC(C)c1ccc2c(c1)c(SC(C)(C)C)c(CC(C)(C)C(=O)O)n2Cc1ccc(Cl)cc1', 'False'),
  ('NC(=O)Cc1cccc(C(=O)c2ccccc2)c1N', 'False');

Kindly consider the entry below.
Ask: Hey, what did the test say about Cc1ncc([N+](=O)[O-])n1CC(C)O (stereo not drawn) ?
Reply: False
